Tested on: HCT-116 colon
Experiment: NCI tumour cell line growth inhibition, 48 h
Would you mind telling me the reported TGI of each entry?

// sample O=c1[nH]c(N/N=C\C(=N/Nc2nc3ccccc3c(=O)[nH]2)C(O)C(O)C(O)CO)nc2ccccc12 (stereo not drawn) , its TGI was > 100 µM

// sample CC1C2CC(CC2(C)O)C1(C)C (stereo not drawn) , its TGI was > 100 µM

// sample C=C1C[C@@H]2O[C@H]3[C@H]4[C@@H](C[C@@H](C)[C@@H](OC(C)=O)[C@H]42)[C@@H](C)CO[C@@]3(C)[C@H](OC(=O)CCCCCCC)C[C@H]1O , its TGI was 30.1 µM

// sample CCOc1cn(C2OC(CO)C(O)C2O)c(=O)[nH]c1=O (stereo not drawn) , its TGI was > 100 µM

// sample Cc1c(/C=N/NC(=S)Nc2ccc(Cl)cc2)c(=O)n(-c2ccccc2)n1C , its TGI was > 62.5 µM

// sample COc1cc(CC2c3cc(OC)c(OC)cc3CCN2C)ccc1O (stereo not drawn) , its TGI was > 100 µM

// sample Oc1ccc2ccccc2c1N=Nc1cc(Cl)ccc1Cl , its TGI was 48.1 µM

// sample CC(=O)CC/C=C(\C)[C@H](O)[C@H](C)C(=O)O[C@H]1C[C@H](C)C=C2C=C[C@@]3(C)O[C@@H](O)CC(=O)[C@]3(C)[C@H]21 , its TGI was 1.89 µM

// sample COc1cc(/C=N/c2nc3cc4sc(/N=C/c5cc(OC)c(OC)c(OC)c5)nc4cc3s2)cc(OC)c1OC , its TGI was > 100 µM

// sample CC1=NN(C(=O)Nc2ccc(Cl)cc2)C(=O)C2CCC(=O)N12 (stereo not drawn) , its TGI was > 100 µM

// sample Nc1ccc(O)c2c1C(=O)c1c(N)ccc(O)c1C2=O , its TGI was > 100 µM

// sample CC(C)(Oc1ccc(Cl)cc1)C(=O)N(C(=O)N1CCCCC1)c1ccccc1 , its TGI was 21.2 µM

// sample CCC1C(C(=O)Nc2ccccc2C)=C(C)NC(C)=C1c1ccccc1C (stereo not drawn) , its TGI was > 77.6 µM

// sample O=[N+]([O-])c1ccc(C(Cl)C(Cl)c2ccc(C(Cl)C(Cl)c3ccc([N+](=O)[O-])cc3[N+](=O)[O-])cc2)c([N+](=O)[O-])c1 (stereo not drawn) , its TGI was 1.75 µM

// sample O=C1C=CC(=C(c2ccccc2)c2ccc(O)cc2)C=C1 , its TGI was > 100 µM

// sample COC(=O)c1ccccc1CC1Cc2cc3c(cc2C1=O)CCC3 (stereo not drawn) , its TGI was 29.9 µM

// sample CC(=O)Nc1ccc(-c2nnc(SCC(=O)Nc3cccc(Cl)c3)o2)cc1 , its TGI was 25.5 µM

// sample O=C(NC(Cc1ccc(Br)cc1)C(=O)O)c1ccc(I)cc1 (stereo not drawn) , its TGI was > 100 µM

// sample C#Cc1cccc(Nc2ncnc3ccc(OCCCCNCCS(C)(=O)=O)cc23)c1 , its TGI was > 18.7 µM

// sample COc1ccc2c(=O)cc(-c3ccc(OC)c(OC)c3OC)oc2c1 , its TGI was > 100 µM

// sample CC(=O)OCCOCNC(=S)N/N=C/c1cc([N+](=O)[O-])ccc1O , its TGI was > 100 µM

// sample Cn1c(=O)c2nc3c(=O)n(C)c(=O)n(CC(N)=O)c3nc2n(C)c1=O , its TGI was > 100 µM

// sample CC[C@]12C=CCN3CCC4(c5cc([C@@]6(C(=O)OC)CC7CN(CCc8c6[nH]c6ccccc86)C[C@@H]6CCCC[C@H]76)c(OC)cc5N(C)C4[C@](O)(C(=O)OC)C1OC(C)=O)[C@@H]32 (stereo partly drawn) , its TGI was 1.73 µM
